# TARGET OR SYSTEM: CtCHAD (Chlorobaculum tepidum, UniProt Q8KE09)
# Construct: gene CT0884; CHAD domain, residues 208-522; N-terminal 6xHis tag cleaved by TEV; E. coli BL21 (DE3) RIL; 36,194 D monomer; mainly dimer, some tetramer in solution
# Sequence (Q8KE09 208-522): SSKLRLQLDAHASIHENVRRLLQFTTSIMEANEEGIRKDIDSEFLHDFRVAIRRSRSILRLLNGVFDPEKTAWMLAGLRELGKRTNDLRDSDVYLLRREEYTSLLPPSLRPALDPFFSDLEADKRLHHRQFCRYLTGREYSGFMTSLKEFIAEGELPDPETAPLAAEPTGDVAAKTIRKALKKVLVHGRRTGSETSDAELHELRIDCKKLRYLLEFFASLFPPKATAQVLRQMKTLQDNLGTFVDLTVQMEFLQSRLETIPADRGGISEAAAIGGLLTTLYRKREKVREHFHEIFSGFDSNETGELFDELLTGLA
# PROTOCOL SUMMARY: grating-coupled interferometry competition against polyP-coated chip
# Type: binding
pIC50: −log10 of the molar value.
EXPERIMENTAL READOUT: pIC50

- O=P(O)(O)OP(=O)(O)OP(=O)(O)O [tripolyphosphate]: ~6.70
